Reference source: the supplement of paper PMC10567573

Listed next: entries and their corresponding protein stability index.
B1: OR10K2 (parent)
chain: SLARLQQLLFVIFLLLYLFTLGTN

Variants of: B1
test-summary: protein stability index of a GFP-peptide fusion (GPS, HEK-293T) (PSI 1-6); higher = more stable;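 note: lentivirally expressed fusions sorted by FACS into six bins by GFP to DsRed ratio, PSI derived from sequencing read proportions per bin multiplied by bin number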
experimental-setup: c terminus: a fixed tail appended

L16Y
3.45
L2Y
2.34
L8A
1.98
N24F
2.87

For the variant A3T , what protein stability index is on record?
1.91

What about L5P ?
2.02

What about F10V ?
2.29

What about S1I ?
2.21

What about Q7I ?
1.99

What about F10T ?
3.08

What about L2A ?
3.88

What about S1T ?
2.85

What about S1P ?
2.46

What about Q6M ?
2.94

What about R4N ?
2.73
